Assay: Tb3+ binding affinity and stoichiometry by sensitized luminescence
Conditions: 1 μM peptide, Tb3+ 0-50 μM; read-out: Kd of peptide:terbium complex
Where no end group is shown, it is not given here. The star is where a group is joined. Biotin = O=C1N[C@H]2[C@H](CS[C@H]2CCCCC(=O)*)N1

SUBSTANCE	UNIT ABBREVIATION	Kd
GGEEDEDIYEELDEPGGKbiotinGG [SFAStide-A]	µM	3.93
GGDNEGDVYDFVEDGGKbiotin (GGDNEGDVYDFVEDGGK(Biotin)GG) [SFAStideB, Src family artificial substrate peptide B]	µM	2.5

* * *

Molecular target: Syk-EGFP (Mus musculus, UniProt P48025)
Sequence (P48025 whole entry): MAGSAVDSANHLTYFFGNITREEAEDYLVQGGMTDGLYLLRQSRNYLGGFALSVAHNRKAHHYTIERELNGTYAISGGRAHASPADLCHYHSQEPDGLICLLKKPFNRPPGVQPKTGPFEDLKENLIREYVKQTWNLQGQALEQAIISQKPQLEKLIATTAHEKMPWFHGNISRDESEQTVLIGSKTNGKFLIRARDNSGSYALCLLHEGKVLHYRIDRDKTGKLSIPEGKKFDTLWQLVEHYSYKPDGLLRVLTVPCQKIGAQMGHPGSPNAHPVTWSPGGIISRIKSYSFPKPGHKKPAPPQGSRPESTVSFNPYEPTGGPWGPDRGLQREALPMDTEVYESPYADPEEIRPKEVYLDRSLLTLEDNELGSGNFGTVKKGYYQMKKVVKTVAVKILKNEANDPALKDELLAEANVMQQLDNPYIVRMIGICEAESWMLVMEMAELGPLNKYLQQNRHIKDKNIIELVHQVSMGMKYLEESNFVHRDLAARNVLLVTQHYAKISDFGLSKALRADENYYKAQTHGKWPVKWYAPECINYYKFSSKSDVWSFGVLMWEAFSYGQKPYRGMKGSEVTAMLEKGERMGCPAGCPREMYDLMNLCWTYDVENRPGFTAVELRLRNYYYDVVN
pIC50: −log10 of the molar value.
READOUT TYPE: pIC50

CHEMICAL SMILES	RECORDED VALUE
Oc1cc(O)cc(/C=C/c2ccc(O)c(O)c2)c1	3.75

* * *

Experiment: Tb3+ binding affinity and stoichiometry by sensitized luminescence
Conditions: read-out: Kd of 1:1 peptide-terbium complex

MONOMER SEQUENCE	UNIT ABBREVIATION	Kd
DEEDYEEPDEP [SAStide]	µM	7.64

Data origin: patent US10150984B2
